Here, each record is paired with measured TGI data.
System: HL-60(TB) leukemia
ASSAY NAME: NCI tumour cell line growth inhibition, 48 h
VALUE TYPE: TGI (µM)

                                   compound  inequality_sign  obs_value
0  COc1ccc2c(c1)[n+]([O-])c(C(N)=O)c(N)[n+]2[O-]                >        100
1  CCNC(=O)C#Cc1ccc2c(C(=Nc3ccc(CN(C)C)cc3)c3ccccc3)c(O)[nH]c2c1                =      0.932
2         COc1c2ccccc2c(OC)c2[nH]c(=O)ccc12                >       92.4
3  NC(N)=NS(=O)(=O)c1ccc(N=Nc2c(O)c(C(=O)O)cc3ccccc23)cc1                >        100
4  CCOC(=O)CCC(NC(=O)C(N)Cc1ccc(N(CCCl)CCCl)cc1)C(=O)OCC (centres undefined)                =      0.586
5  Cc1nc(-c2nc(C)c(C(=O)NNC(=O)C[n+]3ccccc3)s2)sc1C(=O)NNC(=O)C[n+]1ccccc1                >        100
6  C=C1C(=O)O[C@H]2[C@H]1CC/C(CNC(=O)c1cc3ccccc3[nH]1)=C\CC[C@@]1(C)O[C@@H]21                =        5.8
7  COc1cc2c(/C=C3/C(=O)Nc4cccc(Cl)c43)c(Cl)[nH]c2cc1C                =       4.56
8     O=C(Nc1c(O)[nH]c(=S)[nH]c1=O)c1ccccc1                >        100

====

Here, each record is paired with measured TGI data.
Tested on: SK-MEL-2 melanoma
ASSAY NAME: NCI tumour cell line growth inhibition, 48 h

COMPOUND	TGI
C/C(=N\NC(N)=S)c1ccc2c(c1)Sc1ccccc1O2	6.99 µM
CC1(C)CC(c2c[nH]c3ccccc23)=CC2=Nc3ccccc3C21O (configuration not stated)	> 100 µM
CC(C)=C[C@H]1C[C@H](C)[C@H]2CC[C@H](C)c3c2c1c(C)c1ncoc31	31.1 µM
COc1ccc(CN2C(=O)C(Cl)=C(Nc3cccc(C(F)(F)F)c3)C2=O)cc1	27.3 µM
COc1cccc(-c2cc(=O)c3cc(N4CCCCC4)ccc3[nH]2)c1	> 100 µM
CCOC(=O)n1cc(C2=C(c3ccc(OC)c(OC)c3)COC2=O)c2ccccc21	> 100 µM
C/C=C/[C@@H]1O[C@@H]2COC(=O)C2=C[C@@H]1O	> 79.7 µM
Cc1nc(-c2nc(C)c(C(=O)NNC(=O)C[n+]3ccccc3)s2)sc1C(=O)NNC(=O)C[n+]1ccccc1	> 100 µM
[O-][Cl+3]([O-])([O-])[O-].[O]=[Ru]=[O].c1ccc(-c2ccccn2)nc1.c1ccc(-c2ccccn2)nc1	> 100 µM
CN(C)CC1CCCC/C1=N/O (configuration not stated)	> 100 µM
O=C1c2c(F)c(F)c(F)c(F)c2C(=O)N1c1ccc(F)cc1F	> 100 µM
CCC(C)SC1SCC2C(=O)N(C)C3(CC3C)C(=O)OCC(NC(=O)c3nc4ccccc4cc3O)C(=O)NC(C)C(=O)N(C)C1C(=O)N(C)C1(CC1C)C(=O)OCC(NC(=O)c1nc3ccccc3cc1O)C(=O)NC(C)C(=O)N2C (configuration not stated)	0.000304 µM
C=C1C[C@H](O)[C@H](Br)C(C)(C)[C@@]12CCC(C)=C(Cl)C2	2.61 µM
CC#Cc1ccc(-c2ccccc2)s1	> 100 µM
Cc1ccc(-c2nc(N3CCNCC3)c3oc(-c4ccc(C)cc4)nc3n2)cc1	> 60.9 µM
O=C(C(=O)n1ccc2ccccc21)n1ccc2ccccc21	> 100 µM
C[N+]12C=CC=C1C(N1CCCC1)c1scc(-c3ccc(Br)cc3)c12 (configuration not stated)	17.3 µM
CC(=O)OC1(C)N=NC2(CCCCC2)O1 (configuration not stated)	> 100 µM
O=c1[nH]c(-c2ccccc2)nc2cc(Cl)ccc12	> 100 µM
NC(=S)N/N=C\c1nccc2c(C(F)(F)F)cccc12	8.34 µM
N#Cc1nc(-c2cnccn2)oc1N	> 100 µM
N=c1oc2ccccc2cc1C(=O)NC12CC3CC(CC(C3)C1)C2	31.3 µM
